ASSAY_OVERVIEW: protein stability index of a GFP-peptide fusion (yeast GPS) (PSI 1-4); higher = more stable; sorted into four equal gates, so the index is relative within each strain
MEASUREMENT_CONTEXT: pdr5∆
QUANTITY_NAME: protein stability index
// print number alone

Take a look at these entries with their results.
PKEVDGLEVGPVVQVGI [IRR1] = 2.98
AASLGDMVMATVKKGKP [RPL23A] = 1.96
QFEWHQNSLLTNTHPNF [SNF2] = 2.88
WAGKRLWDQDIAIAGTG [COR1] = 3.11
DIKVLKRQLIKERNQKF [YIL149C/MLP2] = 2.62
TPAAATSPIDIREKVAK [SNF2] = 2.84

Attention now shifts to the item below.
Give protein stability index for the following sequence: KEDKSEAIDGNGEIKGE [SNF2]
2.81

====

protein stability index for assorted sequences
ASSAY_OVERVIEW: protein stability index of a GFP-peptide fusion (yeast GPS) (PSI 1-4); higher = more stable; sorted into four equal gates, so the index is relative within each strain
MEASUREMENT_CONTEXT: ubr1∆
// print number alone

Take a look at these entries with their results.
RGYWGTNLGQPHSLATK [RPS2] = 2.85
ERDSYKLLASTEENKAN [YIL149C/MLP2] = 3.06
NEPTQKDEEETEYFENK [DSN1] = 3.12

Give protein stability index for the following sequence: AIAGNSTTNSDVSLLLQ [RGR1]
3.13

Give protein stability index for the following sequence: NGGLIHVVTREKGPQVC [RPO21]
2.96

Give protein stability index for the following sequence: DENDSKKNNAASELANP [YAR002W/NUP60]
2.97

Give protein stability index for the following sequence: FNRLKKQAHEKLDASKK [YIL149C/MLP2]
3.14

Give protein stability index for the following sequence: LIASHYGVSFFTIQSFV [BRR2]
1.81

Give protein stability index for the following sequence: DIKAPSTFENRNVGKTL [RPS1A]
3.1

Give protein stability index for the following sequence: NTHYHADYRLILTGTPL [SNF2]
1.75

Give protein stability index for the following sequence: KTRKTYCKGKTCRKHTQ [RPL42A]
2.06

Give protein stability index for the following sequence: EGKRIAFGFVDRTLPHF [RPO21]
3.13

Give protein stability index for the following sequence: LGNTSSVANTPSEIPDA [SWI3]
2.98

====

ASSAY_OVERVIEW: protein stability index of a GFP-peptide fusion (yeast GPS) (PSI 1-4); higher = more stable; sorted into four equal gates, so the index is relative within each strain
MEASUREMENT_CONTEXT: ubr1∆
QUANTITY_NAME: protein stability index
// print number alone

Take a look at these entries with their results.
LNAANYNIDANVIDTQR [ECM29] = 2.85
NNAVRFSKQCLISNAIY [ECM29] = 1.08
KLDSKKILPTDIQLKNL [SRP68] = 2.69
QLYHLEQQKEELTDKLS [SMC1] = 3.14
TQSGGVRPFGVSTLIAG [PRE6] = 1.43
LCKSATTKMWPTNCPLR [BRR2] = 2.75

Attention now shifts to the item below.
Give protein stability index for the following sequence: DRVQQDSEDEDSMKDTT [YML031W/NDC1]
3.25

====

protein stability index for assorted sequences
ASSAY_OVERVIEW: protein stability index of a GFP-peptide fusion (yeast GPS) (PSI 1-4); higher = more stable; sorted into four equal gates, so the index is relative within each strain
MEASUREMENT_CONTEXT: san1∆

Take a look at these entries with their results.
AEKYQERSLRQKYNLLH [SNM1] = 3.23
KMENFEFLPLSLHILMI [SRB8] = 1.91
DEEESNDEKQKAQDVDV [RPN13] = 3.34
WRVREASTSALLQLIQS [ECM29] = 1.04
SKISQMAQNKTHIPQTN [YLR018C/POM34] = 2.07

Give protein stability index for the following sequence: QEDELDEGTALSRLGLK [RPB10]
3.5

Give protein stability index for the following sequence: DEGKEIPATIFDKVIYH [TAF14]
3.15
